- Protocol Summary: Plasma PK in the rat after oral dosing (observed)
- Format: in vivo, male Wistar rats
- Setup Conditions: male, Wistar, oral 8 mg/kg
Assay Endpoint: Cmax (ng/mL)

CCCCC1=CCC[C@@]2(C)CC[C@@H]3C[C@]12OC3(C)C: 10.6

----------
- Protocol Summary: Clinical plasma PK in healthy volunteers after oral dosing (observed)
- Format: in vivo
- Setup Conditions: male, human, po, 120 mg, oral single dosing 120 mg, read-out: AUC0-t Observed
Assay Endpoint: AUC(0-t) (ng·h/mL)

CCCCC1=CCC[C@@]2(C)CC[C@@H]3C[C@]12OC3(C)C: 246

----------
- Protocol Summary: Clinical plasma PK in healthy volunteers after oral dosing (observed)
- Format: in vivo
- Setup Conditions: male, human, po, 120 mg, oral single dosing 120 mg, read-out: AUC0-∞ Observed
Assay Endpoint: AUC(0-inf)

CCCCC1=CCC[C@@]2(C)CC[C@@H]3C[C@]12OC3(C)C [buagafuran]: 0.272 µg·h/mL

----------
- Protocol Summary: Caco-2 transport study
- Format: in vitro ADME
- Setup Conditions: human, Caco-2 monolayer, read-out: apparent permeability coefficient (AP to BL)
Assay Endpoint: Papp A→B at 50 μM (×10⁻⁶ cm/s)

CCCCC1=CCC[C@@]2(C)CC[C@@H]3C[C@]12OC3(C)C [buagafuran]: 195

----------
- Protocol Summary: Clinical plasma PK in healthy volunteers after oral dosing (observed)
- Format: in vivo
- Setup Conditions: male, human, po, 120 mg, oral single dosing 120 mg, read-out: MRT(0-∞) Observed
- Description: The study protocol was approved by the Ethics Committee of Peking Union Medical College Hospital approved (Permission Number: 09103), and the Informed Consent Form was signed by all subjects before the study. PVP formulation of buagafuran was packed into capsules for oral administration. […] Pharmacokinetic parameters were determined with a non-compartmental model using WinNonlin v 6.0 (Pharsight Corporation, Mountain View, CA, United States). […]
Assay Endpoint: MRT inf (h)

CCCCC1=CCC[C@@]2(C)CC[C@@H]3C[C@]12OC3(C)C: 5.28

----------
- Protocol Summary: Clinical plasma PK in healthy volunteers after oral dosing (observed)
- Type: in vivo
- Setup Conditions: male, human, oral, 60 mg, multiple dosing (60 mg once daily, 7 days)/first dosing, read-out: AUC0-∞ Observed
Assay Endpoint: AUC(0-inf)

CCCCC1=CCC[C@@]2(C)CC[C@@H]3C[C@]12OC3(C)C: 113 ng·h/mL

----------
- Protocol Summary: Plasma PK in the rat after oral dosing (observed)
- Type: in vivo, male Wistar rats
- Setup Conditions: male, Wistar, oral 4 mg/kg, read-out: AUC0-∞ Observed
- Excerpt: Animal Care and Welfare Committee of Institute of Materia Medica, Chinese Academy of Medical Sciences approved all animal protocols (1 Xian nong tan Street, Xicheng District, Beijing, China; Permission Number: SYXK 2014-0023, Expiration: 06 Aug, 2019). […] Buagafuran concentrations in plasma and brain samples were quantitated by an LC-MS/MS method ([Yang et al., 2011]). […]
Assay Endpoint: AUC(0-inf) (ng·h/mL)

CCCCC1=CCC[C@@]2(C)CC[C@@H]3C[C@]12OC3(C)C [buagafuran]: 11.4

----------
- Protocol Summary: Clinical plasma PK in healthy volunteers after oral dosing (observed)
- Format: in vivo
- Setup Conditions: male, human, po, 30 mg, oral single dosing 30 mg, read-out: MRT(0-∞) Observed
Assay Endpoint: MRT inf (h)

CCCCC1=CCC[C@@]2(C)CC[C@@H]3C[C@]12OC3(C)C [buagafuran]: 3.33
